- tested on: T1, human C5a (source not stated) (human, UniProt P01031 678-751)
- T1 sequence: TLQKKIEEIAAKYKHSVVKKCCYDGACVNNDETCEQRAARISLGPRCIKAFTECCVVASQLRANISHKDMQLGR
- measurement protocol: cell-based or functional assay
Rule for this label: TRUE means ROS IC50 is less than 1 nM; FALSE means ROS IC50 is at least 1 nM.

{"columns": ["binder", "category label"],
 "data": [
  ["Cab03 scFv (scFv, V domains shown) VH: EVQLVESGGGLVQPGGSLKVSCAASGFIFSDYYMQWVRQAPGKGPEWVGLIRKKVNGGTTEYAASVKGRFTISRDDSKSIVYLQMSSLKIEDTAVYYCVSRAGPPGLTWGQGVLVTVSS VL: DIVLTQTPLSLAVSPGEPASISCRSSQSLLASDGYTYLDWYLQKPGQSPQILIYGGSNRASGVPDRFSGRGSGTDFTLKITKVEAEDVGVYYCLQHRALPPTFGQGTKLEIK", "FALSE"],
  ["Cab13 scFv (scFv, V domains shown) VH: VVQLVESGGGLVQPGGSLKVSCAASGFTFSDYYMQWVRQAPGKGPEWVGLIRNKAIGGTTQYAASVKGRFTISRDDSKSIVYLQMSSLKTEDTAVYYCVSRAGPPGLSWGQGVLVTISS VL: DIVMIQNPLSLPVTPGEPASISCRSSQSLLASDGYNYMDWYLQKPGQSPKVLIYGGSNRASGVPDRFSGSGSGTDFTLKITKVEAEDVGIYYCMQHKVLPPTFGQGTKLEIK", "FALSE"],
  ["Cab04 scFv (scFv, V domains shown) VH: EVQLVQSGGGLVQPGGSLKVSCAASGFTFSDYYMQWVRQAPGKGPEWVGLIRNKAIGGTTQYAASVKGRFTISRDDSKSIVYLQMSSLKTEDTAVYYCVSRAGPPGLSWGQGVVVTVSS VL: DIVMIQTPLSLPVTPGEPASISCRSSQRLLHTDGYTYLDWYLQKPGQSPQLLIYGGSNRASGVPDRFSGSGSGSDFTLKISKVEAEDVGVYYCLQHKALPLTFGGGTKLEIK", "FALSE"],
  ["Cab05 scFv (scFv, V domains shown, scFv) VH: EMQLVESGGGLVQPGGSLRLSCAASGFTFSDYYMQWVRQAPGKGPEWVGLIRNKAVGGTTQYAASVKGRFTISRDDSKNSVYLQMNSLKTEDTAVYYCVSRAGPPGLSWGQGVLVTVSS VL: DIVMTQSPLSLPVTPGEPASISCRSSQSLLASDGYNYIDWYLQKPGQSPQLLIYGGSNRASGVPDRFSGSGSGTDFTLKISRVEAEDVGVYFCLQHRALPPTFGQGTKLEIK", "FALSE"],
  ["Cab01 scFv (scFv, V domains shown) VH: EVQLVESGGGMVQPGGSLRVSCAASGFTFTKYYMQWVRQAPGKGPEWVGLIRNKANGGTAEYVASVKDRFTISRDDSKSIAYLQMSSLKTEDTAVYYCVMRDNGYHWGQGVLVTVSS VL: DIVLTQTPLSLPVTPGEPASISCRSSQRLLHSDGYTYLDWYLQKPGQSPQLLIYGGSNRASGVPDRFSGSGSGTDFTLKISKVEAEDVGVYYCMQHKALPLTFGGGTKVEIK", "FALSE"],
  ["Cab15 scFv (scFv, V domains shown) VH: VVQLVESGGGLVQPGGSLKVSCAASGFTFSDYYMQWVRQAPGKGPEWVGLIRNKAIGETTEYAASVKGRFTISRDDSKSIVYLQMSSLKPEDTAVYYCAGRLGPPGLSWGQGVLVTVSS VL: DIVMTQNPLSLPVTPGEPASISCRSSQSLLATDGYTYLDWYLQKPGQSPQVLIYGGSKRASGVPDRFSGSGSGTDFTLKITKVEAEDVGIYYCMQHKALPPTFGQGTKLEIK", "TRUE"],
  ["Cab21 scFv (scFv, V domains shown) VH: EVQLVQSGGGLVQPGGSLKVSCAASGFIFSNYYIQWVRQAPGKGPEWVGLIRNKAIGETTEFAASVKGRFTISRDDSKSIVYLQMTRLKTEDTAVYYCAGRLGPPGLTWGQGVLVTISS VL: DAVMTQTPLSLPVTPGEPASISCRSSQSLLASDGYNYIDWYLQRPGQSPKVLIYGGSNRASGVPDRFSGSGSGTYFTLKISKVEAEDVGFYFCLQHRALPPTFGQGTKLEIK", "TRUE"]
]}
